Values from patent US8288410B2

- System: MRSA
- measurement_protocol: Antibacterial susceptibility testing, MRSA
- Type: cell-based, methicillin resistant Staphylococcus aureus
- assay_setup: Table 2
readout_type: MRSA IC50

Solved cases (2 shown):
COc1cccc(N(CCCCCC2CCCCC2)c2cc3ccccc3[n+](C)c2)c1.[I-] [JRE-3-69-1] = 0.50 µg/mL
C[n+]1cc(N(CCCCCC2CCCCC2)c2ccc(Cl)cc2)cc2ccccc21.[I-] [JRE-4-9-1] = 0.40 µg/mL

Consider the record given below.
Prompt line: State its MRSA IC50: COc1ccc(N(CCCCCC2CCCCC2)c2cc3ccccc3[n+](C)c2)cc1.[I-] [JRE-3-68-1]
Response line: 0.50 µg/mL

###

- Test system: Candida albicans ATTC 90028
- measurement_protocol: Antifungal susceptibility testing, Candida albicans
- Format: cell-based
- assay_setup: Table 1
readout_type: Ca MIC

Solved cases (5 shown):
[I-].[O-][S+](c1cccc(Br)c1)c1cc2ccccc2[n+](CCCCCc2ccccc2)c1 (centres unmarked) = — ((-) = >20 μg/mL)
COc1cccc(Sc2cc3ccccc3[n+](CCCCCc3ccccc3)c2)c1.[I-] = 20 µg/mL
[I-].[O-][S+](c1ccc(F)cc1)c1cc2ccccc2[n+](CCCCCc2ccccc2)c1 (centres unmarked) = — ((-) = >20 μg/mL)
[I-].[O-][S+](c1cccc(C(F)(F)F)c1)c1cc2ccccc2[n+](CCCCCc2ccccc2)c1 (centres unmarked) = — ((-) = >20 μg/mL)
FC(F)(F)c1cccc(Sc2cc3ccccc3[n+](CCCCCc3ccccc3)c2)c1.[I-] = 10 µg/mL

Prompt line: State its Ca MIC: [I-].[O-][S+](c1cc2ccccc2[n+](CCCCCc2ccccc2)c1)c1ccccc1Cl (centres unmarked)
Response line: — ((-) = >20 μg/mL)

Prompt line: State its Ca MIC: `Brc1cccc(Sc2cc3ccccc3[n+](CCCCCc3ccccc3)c2)c1.[I-]`
Response line: — ((-) = >20 μg/mL)

Prompt line: State its Ca MIC: `Brc1ccccc1Sc1cc2ccccc2[n+](CCCCCc2ccccc2)c1.[I-]`
Response line: — ((-) = >20 μg/mL)

Prompt line: State its Ca MIC: `COc1ccccc1Sc1cc2ccccc2[n+](CCCCCc2ccccc2)c1.[I-]`
Response line: 10 µg/mL

Prompt line: State its Ca MIC: `Clc1ccccc1Sc1cc2ccccc2[n+](CCCCCc2ccccc2)c1.[I-]`
Response line: — ((-) = >20 μg/mL)

Prompt line: State its Ca MIC: `COc1ccc(Sc2cc3ccccc3[n+](CCCCCc3ccccc3)c2)cc1.[I-]`
Response line: — ((-) = >20 μg/mL)

Prompt line: State its Ca MIC: [I-].[O-][S+](c1cc2ccccc2[n+](CCCCCc2ccccc2)c1)c1ccccc1Br (centres unmarked)
Response line: — ((-) = >20 μg/mL)

Prompt line: State its Ca MIC: [I-].[O-][S+](c1cc2ccccc2[n+](CCCCCc2ccccc2)c1)c1ccccc1C(F)(F)F (centres unmarked)
Response line: — ((-) = >20 μg/mL)

Prompt line: State its Ca MIC: `Fc1cccc(Sc2cc3ccccc3[n+](CCCCCc3ccccc3)c2)c1.[I-]`
Response line: 10 µg/mL

Prompt line: State its Ca MIC: `FC(F)(F)c1ccc(Sc2cc3ccccc3[n+](CCCCCc3ccccc3)c2)cc1.[I-]`
Response line: 10 µg/mL

Prompt line: State its Ca MIC: [I-].[O-][S+](c1cc(C(F)(F)F)cc(C(F)(F)F)c1)c1cc2ccccc2[n+](CCCCCc2ccccc2)c1 (centres unmarked)
Response line: 20 µg/mL

###

- Tested on: Candida albicans ATTC 90028
- measurement_protocol: Antifungal susceptibility testing, Candida albicans
- Type: cell-based
- assay_setup: Table 1
readout_type: Ca MIC

Solved cases (4 shown):
C[C@@H]1[C@H](O)[C@@H](C)/C=C/C=C/C=C/C=C/C=C/C=C/C=C/[C@H](O[C@@H]2O[C@H](C)[C@@H](O)[C@H](N)[C@@H]2O)C[C@@H]2O[C@](O)(C[C@@H](O)C[C@@H](O)[C@H](O)CC[C@@H](O)C[C@@H](O)CC(=O)O[C@H]1C)C[C@H](O)[C@H]2C(=O)O [Amph B, Amphotericin B, reference compound] = 0.63 µg/mL
Fc1ccccc1Sc1cc2ccccc2[n+](CCCCCc2ccccc2)c1.[I-] = 10 µg/mL
FC(F)(F)c1ccccc1Sc1cc2ccccc2[n+](CCCCCc2ccccc2)c1.[I-] = 1.3 µg/mL
COc1cccc([S+]([O-])c2cc3ccccc3[n+](CCCCCc3ccccc3)c2)c1.[I-] (centres unmarked) = — ((-) = >20 μg/mL)

Prompt line: State its Ca MIC: [I-].[O-][S+](c1ccc(C(F)(F)F)cc1)c1cc2ccccc2[n+](CCCCCc2ccccc2)c1 (centres unmarked)
Response line: — ((-) = >20 μg/mL)

Prompt line: State its Ca MIC: COc1ccc([S+]([O-])c2cc3ccccc3[n+](CCCCCc3ccccc3)c2)cc1.[I-] (centres unmarked)
Response line: — ((-) = >20 μg/mL)

Prompt line: State its Ca MIC: `C[n+]1cc(Sc2ccc(C(F)(F)F)cc2)cc2ccccc21.[I-]`
Response line: — ((-) = >20 μg/mL)

Prompt line: State its Ca MIC: `C[n+]1cc(Sc2ccccc2)cc2ccccc21.[I-]`
Response line: — ((-) = >20 μg/mL)

###

- Tested on: Vero Cells
- measurement_protocol: Cytotoxicity, Vero cells
- Assay type: cell-based
- assay_setup: Table 2
Each entry below carries its recorded TC50 Vero Cells.
// units = µg/mL; emit number, no label

Solved cases (4 shown):
C[n+]1cc(N(CCCCCC2CCCCC2)c2ccc(C(F)(F)F)cc2)cc2ccccc21.[I-] = 25
C[n+]1cc(N(CCCCCC2CCCCC2)c2ccc(Cl)cc2)cc2ccccc21.[I-] = 10
Clc1ccc(Nc2cc3ccccc3[n+](CCCCCC3CCCCC3)c2)cc1.[I-] = 12.5
C[C@@H]1[C@H](O)[C@@H](C)/C=C/C=C/C=C/C=C/C=C/C=C/C=C/[C@H](O[C@@H]2O[C@H](C)[C@@H](O)[C@H](N)[C@@H]2O)C[C@@H]2O[C@](O)(C[C@@H](O)C[C@@H](O)[C@H](O)CC[C@@H](O)C[C@@H](O)CC(=O)O[C@H]1C)C[C@H](O)[C@H]2C(=O)O [Amph B, Amphotericin B, reference compound] = 6.5

Consider the record given below.
Prompt line: Give reported TC50 Vero Cells for `Clc1cccc(Nc2cc3ccccc3[n+](CCCCCC3CCCCC3)c2)c1.[I-]` (Vero Cells)
Response line: 12.5

###

- System: Cryptococcus neoformans ATCC 90113
- measurement_protocol: Antifungal susceptibility testing, Cryptococcus neoformans
- Assay type: cell-based
- assay_setup: Table 1
Each entry below carries its recorded Cn MFC.
// units = µg/mL; emit number, no label

Prompt line: State its Cn MFC: `Brc1cccc(Sc2cc3ccccc3[n+](CCCCCc3ccccc3)c2)c1.[I-]`
Response line: 20

Prompt line: State its Cn MFC: `O=C(c1ccc(Cl)cc1)c1cc2ccccc2[n+](CCCCCc2ccccc2)c1.[I-]`
Response line: 10

Prompt line: State its Cn MFC: [I-].[O-][S+](c1cccc(C(F)(F)F)c1)c1cc2ccccc2[n+](CCCCCc2ccccc2)c1 (centres unmarked)
Response line: 20

Prompt line: State its Cn MFC: `FC(F)(F)c1ccccc1Sc1cc2ccccc2[n+](CCCCCc2ccccc2)c1.[I-]`
Response line: 0.63

Prompt line: State its Cn MFC: `[I-].c1ccc(CCCCC[n+]2cc(Sc3ccccc3)cc3ccccc32)cc1`
Response line: 10

###

- Tested on: Aspergillus fumigatus ATCC 90906
- measurement_protocol: Antifungal susceptibility testing, Aspergillus fumigatus
- Assay type: cell-based
readout_type: A fu MFC (µg/mL)
// units = µg/mL; emit number, no label

C[n+]1cccc(N(CCCCCC2CCCCC2)c2ccccc2)c1 = 1.3
C[n+]1cc(N(CCCCCC2CCCCC2)c2ccc3ccccc3c2)cc2ccccc21 = 3.1

Prompt line: State its A fu MFC: `C[n+]1cc(N(CCCCCC2CCCCC2)c2ccc(C(F)(F)F)cc2)cc2ccccc21.[I-]`
Response line: 6.3

###

Each entry below carries its recorded Cn MFC.
- System: Cryptococcus neoformans ATCC 90113
- measurement_protocol: Antifungal susceptibility testing, Cryptococcus neoformans
- Type: cell-based
- assay_setup: Table 1
// units = µg/mL; emit number, no label

Solved cases (3 shown):
[I-].[O-][S+](c1cccc(Br)c1)c1cc2ccccc2[n+](CCCCCc2ccccc2)c1 (centres unmarked) = 20
COc1cccc(Sc2cc3ccccc3[n+](CCCCCc3ccccc3)c2)c1.[I-] = 10
FC(F)(F)c1ccc(Sc2cc3ccccc3[n+](CCCCCc3ccccc3)c2)cc1.[I-] = 10

Consider the record given below.
Prompt line: Give reported Cn MFC for `Clc1ccccc1Sc1cc2ccccc2[n+](CCCCCc2ccccc2)c1.[I-]` (Cryptococcus neoformans ATCC 90113)
Response line: 20
